# System: MDA-MB-435 melanoma
# assay explanation: NCI-60 one-dose screen, 48 h (100 = growth as untreated, 0 = no growth, -100 = all killed)
# measurement context: 10 µM unless noted
Compounds without any hit were thinned out: in the full panel of roughly 83,000, 20% have a hit.
A collection of compounds and their measured growth
endpoint label: growth (%)

INSERT INTO assay_data (compound, recorded_number) VALUES
  ('CC(C)CC(CC1=CCC2CC1C2(C)C)C1=C(O)C(C)(C)C(=O)C(C)(C)C1=O (stereo not given)', 11),
  ('COc1cccc(/C=C\C(=O)c2ccccc2)c1', 72.9),
  ('CSc1nc(NCCCNc2ccnc3cc(Cl)ccc23)cc(-c2ccccc2)n1', 55.4),
  ('CN1CCOCCOCCOc2ccccc2NC(=O)c2nc(cnc2N)-c2ccc(cc2)S1(=O)=O', 58.3),
  ('O=C1c2c[n+](Cc3ccccc3)ccc2-c2nc3ccccc3c3ccnc1c23', -81.8),
  ('C=C1CCC2C3(C)COC(c4ccc(SC)cc4)OC3CCC2(C)C1C/C=C1/C(=O)OCC1O (stereo not given)', 61.3),
  ('COc1cc(-c2cc(-c3nc4ccc(Cl)cc4[nH]3)[nH]n2)cc(OC)c1OC', 39.5),
  ('O=C1CC(c2nc3ccccc3s2)CN1C1CCCCC1 (stereo not given)', 107),
  ('O=C(O)c1cn(C2CC2)c2cc(N3CCN(Cc4nc5c(cnn5-c5ccc([N+](=O)[O-])cc5)c(=O)[nH]4)CC3)c(F)cc2c1=O', 100),
  ('Nc1c(C(=O)Nc2ccccc2)sc2nc3c(cc12)CN(CCc1ccccc1)CC3', 102);
